// data source = patent US12138256B2

Test: Protein binding via ultrafiltration assay (comparative example 2)
Type: in vitro ADME
Conditions: Human (male) plasma
PROPERTY: fraction unbound
No unit in the answer, please; the number alone is enough.

## Task Supply measured fraction unbound of COC(=O)N(C)c1c(N)nc(-c2nn(Cc3ccccc3F)c3ncccc23)nc1N [comparative example 2, reference compound] in your reply.
## Result 0.0497

###

Assay: Protein binding via Transil assay, human plasma
Assay type: in vitro ADME
Settings: Human (male) plasma, Transil assay; read-out: Fraction unbound
PROPERTY: fraction unbound
No unit in the answer, please; the number alone is enough.

## Task Supply measured fraction unbound of O=C(O)c1ccc(CCN(CCc2ccccc2OCc2ccc(-c3ccc(C(F)(F)F)cc3)cc2Cl)[C@H]2CCCc3nc(C(=O)O)ccc32)cc1 [comparative example 11] in your reply.
## Result 0.000764

## Task Supply measured fraction unbound of O=C(O)CCCCN(CCc1ccccc1OCc1ccc(CCc2ccccc2)cc1)Cc1ccc(C(=O)O)cc1 [comparative example 1] in your reply.
## Result 0.00392
